The molecules listed here are annotated with their Ki.
molecular target: Adrenergic receptor alpha-1 (Rattus norvegicus, UniProt P15823+P23944+P43140); assay: Ability to displace [3H]prazosin from postsynaptic alpha-1 adrenergic receptor of rat in vitro.; format: protein assay
Respond with the bare value in nM.

# record.smiles, test.target, unit.tag, assay.value
records = [
    ("CN1CCc2n[nH]c(-c3ccc(F)cc3)c2C1", "Adrenergic receptor alpha-1 (Rattus norvegicus, UniProt P15823+P23944+P43140)", "nM", 507),
    ("CCCn1nc(-c2ccc(F)cc2)c2c1CCNC2.CS(=O)(=O)O", "Adrenergic receptor alpha-1 (Rattus norvegicus, UniProt P15823+P23944+P43140)", "nM", 24.2),
]

Look up Ki: CN1CCc2c(c(-c3ccc(F)cc3)nn2Cc2ccccc2)C1.CS(=O)(=O)O
21.2

----------
target: Adrenergic receptor alpha-1 (Rattus norvegicus, UniProt P15823+P23944+P43140); test: Ability to displace [3H]prazosin from postsynaptic alpha-1 adrenergic receptor of rat in vitro.; type: protein assay
# class assignment by measured Ki: one = under 40 nM, two = from 40 nM up to 400 nM, three = 400 nM and over

# compound, answer.label
data = [
    ("CCN1CCc2n[nH]c(-c3ccc(F)cc3)c2C1.O=C(O)CC(=O)O", "three"),
    ("Cc1ccc(-c2[nH]nc3c2CNCC3)cc1.Cl.Cl", "two"),
    ("Cn1nc(-c2cccc(F)c2)c2c1CCNC2", "three"),
    ("CCCCN1CCc2c(c(-c3ccc(F)cc3)nn2Cc2ccccc2)C1.Cl", "two"),
    ("Clc1cccc(-c2[nH]nc3c2CNCC3)c1", "three"),
]

Now for a further compound.
Which class holds Fc1ccccc1-c1[nH]nc2c1CNCC2 ?
three

----------
The compounds listed here are annotated with their Ki.
target: Adrenergic receptor alpha-1 (Rattus norvegicus, UniProt P15823+P23944+P43140); experiment: Ability to displace [3H]prazosin from postsynaptic alpha-1 adrenergic receptor of rat in vitro.; assay type: protein assay
Respond with the bare value in nM.

Reference set (5 entries):
# compound, unit.tag, Ki
measured = [
    ("CCn1nc(-c2ccc(F)cc2)c2c1CCN(Cc1ccccc1)C2.CS(=O)(=O)O", "nM", 2020),
    ("CS(=O)(=O)O.Fc1ccc(-c2nn(CCc3ccccc3)c3c2CNCC3)cc1", "nM", 40.3),
    ("CCN1CCc2n[nH]c(-c3ccc(C)cc3)c2C1.O=C(O)CC(=O)O", "nM", 350),
    ("CCCn1nc(-c2ccc(F)cc2)c2c1CCN(C)C2.CS(=O)(=O)O", "nM", 73.5),
    ("CCn1nc(-c2ccc(F)cc2)c2c1CCN(C)C2.CS(=O)(=O)O", "nM", 362),
]

Provide the documented Ki with Adrenergic receptor alpha-1 (Rattus norvegicus, UniProt P15823+P23944+P43140) as the system for Cn1nc(-c2ccc(F)cc2)c2c1CCNC2
1060

Item: CCCCCCn1nc(-c2ccc(F)cc2)c2c1CCNC2.CS(=O)(=O)O
13

----------
biological target: Adrenergic receptor alpha-1 (Rattus norvegicus, UniProt P15823+P23944+P43140); assay: Ability to displace [3H]prazosin from postsynaptic alpha-1 adrenergic receptor of rat in vitro.; assay type: protein assay
The compounds listed here are annotated with their log10 Ki.
Remember, log10 of Ki, in nM.

Reference set (10 entries):
# compound, test.target, log10 Ki
records = [
    ("Fc1ccc(-c2[nH]nc3c2CNCC3)cc1", "Adrenergic receptor alpha-1 (Rattus norvegicus, UniProt P15823+P23944+P43140)", 1.84),
    ("CN1CCc2n[nH]c(-c3ccccc3)c2C1.O=C(O)CC(O)(CC(=O)O)C(=O)O", "Adrenergic receptor alpha-1 (Rattus norvegicus, UniProt P15823+P23944+P43140)", 3.11),
    ("CS(=O)(=O)O.Fc1ccc(-c2nn(CCCc3ccccc3)c3c2CNCC3)cc1", "Adrenergic receptor alpha-1 (Rattus norvegicus, UniProt P15823+P23944+P43140)", 1.11),
    ("CCCCCn1nc(-c2ccc(F)cc2)c2c1CCN(C)C2.CS(=O)(=O)O", "Adrenergic receptor alpha-1 (Rattus norvegicus, UniProt P15823+P23944+P43140)", 1.26),
    ("Cc1ccc(-c2[nH]nc3c2CN(C)CC3)cc1.Cc1ccc(S(=O)(=O)O)cc1", "Adrenergic receptor alpha-1 (Rattus norvegicus, UniProt P15823+P23944+P43140)", 2.40),
    ("CS(=O)(=O)O.Cn1nc(-c2ccccc2)c2c1CCNC2", "Adrenergic receptor alpha-1 (Rattus norvegicus, UniProt P15823+P23944+P43140)", 3.52),
    ("CC(C)N1CCc2c(c(-c3ccc(F)cc3)nn2Cc2ccccc2)C1", "Adrenergic receptor alpha-1 (Rattus norvegicus, UniProt P15823+P23944+P43140)", 1.99),
    ("CC(c1ccccc1)n1nc(-c2ccc(F)cc2)c2c1CCNC2.CS(=O)(=O)O (stereo not drawn)", "Adrenergic receptor alpha-1 (Rattus norvegicus, UniProt P15823+P23944+P43140)", 0.86),
    ("CC(c1ccccc1)n1nc(-c2ccc(F)cc2)c2c1CCN(C)C2.Cl (stereo not drawn)", "Adrenergic receptor alpha-1 (Rattus norvegicus, UniProt P15823+P23944+P43140)", 0.91),
    ("COc1ccc(-c2[nH]nc3c2CNCC3)cc1", "Adrenergic receptor alpha-1 (Rattus norvegicus, UniProt P15823+P23944+P43140)", 2.65),
]

Look up log10 Ki: CN1CCc2c(c(-c3ccc(F)cc3)nn2CCCc2ccccc2)C1.Cl
1.31

Item: CCCCn1nc(-c2ccc(F)cc2)c2c1CCN(C)C2.CS(=O)(=O)O
1.52

Item: Cl.Fc1ccc(-c2nn(Cc3ccccc3)c3c2CNCC3)cc1
1.17

Item: CN1CCc2c(c(-c3ccc(F)cc3)nn2CCc2ccccc2)C1
1.61

Item: CCCCCn1nc(-c2ccc(F)cc2)c2c1CCNC2.CS(=O)(=O)O
0.94

Item: CCCCn1nc(-c2ccc(F)cc2)c2c1CCNC2.CS(=O)(=O)O
1.24

Item: CC(C)n1nc(-c2ccccc2)c2c1CCNC2
3.04

Item: Cl.Fc1ccc(-c2nn(Cc3ccccc3)c3c2CN(C2CCCC2)CC3)cc1
1.63

Item: Cl.Clc1ccc(-c2[nH]nc3c2CNCC3)cc1
2.16

Item: CN1CCc2c(c(-c3ccc(F)cc3)nn2-c2ccc(F)cc2)C1.CS(=O)(=O)O
2.31

Item: Cl.Cn1nc(-c2ccc(Cl)cc2)c2c1CCNC2
2.28

Item: Cl.Fc1ccc(-c2nn(-c3ccc(F)cc3)c3c2CNCC3)cc1
2.21

Item: CCCCCCn1nc(-c2ccc(F)cc2)c2c1CCN(C)C2.CS(=O)(=O)O
1.18

Item: CCN1CCc2n[nH]c(-c3ccccc3)c2C1.Cl
3.18

Item: CC(C)n1nc(-c2ccccc2)c2c1CCN(C)C2.CS(=O)(=O)O
3.46

Item: Cl.Cl.c1ccc(-c2[nH]nc3c2CNCC3)cc1
2.69

Item: CN1CCc2n[nH]c(-c3ccc(Cl)cc3)c2C1.O=C(O)CC(O)(CC(=O)O)C(=O)O
3.30

Item: CCn1nc(-c2ccc(F)cc2)c2c1CCNC2.CS(=O)(=O)O
1.51
